This section presents log10 of IC50 values reported for Caspase-8 (Homo sapiens, UniProt Q14790) in the literature.
Please be aware that the numbers have been log10-transformed from IC50 in µM.

Solved cases (10 shown):
O=C1C[C@H](NC(=O)[C@@H]2CNC[C@@H]3CCCC[C@H](NC(=O)c4ccc5ccccc5c4)C(=O)N32)C(O)O1 (stereo partly drawn) ... -0.30
O=C(CN1CC(CNS(=O)(=O)c2ccccc2)=CC[C@H](NC(=O)c2ccc3ccccc3c2)C1=O)N[C@H]1CC(=O)OC1O (stereo partly drawn) ... -0.96
O=C(CN1CC(CNCc2ccccc2)=CC[C@H](NC(=O)c2ccc3ccccc3c2)C1=O)N[C@H]1CC(=O)OC1O (stereo partly drawn) ... 1.00
O=C1C[C@H](NC(=O)C2(C(=O)NNC(=O)c3cccc4ccccc34)Cc3ccccc3C2)C(O)O1 (stereo partly drawn) ... -0.38
O=C(CN1CC=CC[C@H](NC(=O)c2ccc3ccccc3c2)C1=O)N[C@H]1CC(=O)OC1O (stereo partly drawn) ... 0.33
C[C@@H](C(=O)N[C@H]1CC(=O)OC1O)N1CC=CC[C@H](NC(=O)c2ccc3ccccc3c2)C1=O (stereo partly drawn) ... -0.79
O=C(CN1CCS(=O)(=O)C[C@H](NC(=O)c2cc3ccccc3s2)C1=O)N[C@H]1CC(=O)OC1O (stereo partly drawn) ... 0.93
O=C1C[C@H](NC(=O)[C@@H]2CNC[C@@H]3CCCC[C@H](NC(=O)c4nccc5ccccc45)C(=O)N32)C(O)O1 (stereo partly drawn) ... -0.23
O=C1C[C@H](NC(=O)[C@@H]2CCc3nc4cc(-c5ccccc5)nc-4c(O)n32)C(O)O1 (stereo partly drawn) ... 0.48
COc1cccc(C(=O)NNC(=O)C2(C(=O)N[C@H]3CC(=O)OC3O)CCC2)c1 (stereo partly drawn) ... 0.34

Given the entry "CC[C@H](C)[C@H](NC(=O)[C@H](CCC(N)=O)NC(=O)[C@@H](NC(=O)OCc1ccccc1)C(C)C)C(=O)N[C@H](/C=C/S(C)(=O)=O)CC(=O)O" , report its measured log10 of IC50. -0.22

Entry to check: "O=C1NC(=O)c2cc(NC(=O)c3ccc([N+](=O)[O-])cc3)ccc2C1=O" 1.39

Another compound: O=C(CN1CC=CC[C@H](NC(=O)c2cccc(Cl)c2)C1=O)N[C@H]1CC(=O)OC1O (stereo partly drawn) 0.07

And "CCO[C@@H]1OC(=O)C[C@@H]1NC(=O)[C@@H]1CCCN2C(=O)CC[C@H](NC(=O)c3nccc4ccccc34)C(=O)N12" ? -1.40

What about this compound? O=C(CN1CCSC[C@H](NC(=O)c2nccc3ccccc23)C1=O)N[C@H]1CC(=O)OC1O (stereo partly drawn) 0.85

Record: CC(C)[C@H](NC(=O)OCc1ccccc1)C(=O)Nc1ccccc1C(=O)NC(CC(=O)O)C(=O)CF (stereo partly drawn) -2.22

Let us now turn to O=C(CN1CC=CC[C@H](NC(=O)c2ccccc2)C1=O)N[C@H]1CC(=O)OC1O (stereo partly drawn) 0.62

Would you kindly repeat that for "COc1ccc(OC)c(CC(=O)N[C@H](C(=O)N[C@@H](CC(=O)O)C(=O)CSCC(C)C)C(C)C)c1" ? 0.89

Okay, and Cc1cccc(C)c1C(=O)NNC(=O)C1(C(=O)N[C@H]2CC(=O)OC2O)CCCCC1 (stereo partly drawn) ? -0.64
